# method-notes: self-splicing fitness, log relative to wild type (ln ratio); higher = more splicing; Tetrahymena group I intron in knt gene, E. coli kanamycin selection, DiMSum; sequences stand for … in CUCUCU…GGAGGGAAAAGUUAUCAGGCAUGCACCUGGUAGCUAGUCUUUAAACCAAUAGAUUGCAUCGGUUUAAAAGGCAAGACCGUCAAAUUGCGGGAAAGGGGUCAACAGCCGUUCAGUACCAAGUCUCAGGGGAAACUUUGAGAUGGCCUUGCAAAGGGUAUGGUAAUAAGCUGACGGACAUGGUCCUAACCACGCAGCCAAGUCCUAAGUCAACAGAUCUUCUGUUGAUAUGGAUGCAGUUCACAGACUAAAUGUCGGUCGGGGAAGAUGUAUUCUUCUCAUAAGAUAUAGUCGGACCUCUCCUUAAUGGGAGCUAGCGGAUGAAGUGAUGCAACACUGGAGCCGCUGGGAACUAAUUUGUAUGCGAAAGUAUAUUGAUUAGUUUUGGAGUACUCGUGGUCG;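 also: selection with 25 µg/mL kanamycin versus none on LB agar overnight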
# condition-summary: 37 °C
measurement-label: self-splicing fitness (ln)

# biopolymer-sequence, quantitative-result
measured = [
    ("ACCCAGCAAUAUUACGGGGU", -3),
    ("UGUAAGCAAUAUUACGCGAG", -1.56),
    ("GUCUAGCAAUAUUACGCCAU", -2.04),
    ("CACUAGCAAUAUUACGUACC", -2.55),
    ("CGCGAGCAAUAUUACGUGGU", -2.64),
    ("UGUGAGCAAUAUUACGGCAC", -2.21),
    ("GCCAAGCAAUAUUACGGUUU", -0.943),
    ("GGAAAGCAAUAUUACGGAAG", -1.93),
    ("UAAAAGCAAUAUUACGGAGC", -3.36),
    ("GCCCAGCAAUAUUACGAAAC", -0.851),
    ("UGUUAGCAAUAUUACGGGAA", -0.696),
    ("AUGAAGCAAUAUUACGGGCU", -0.445),
    ("AUACAGCAAUAUUACGUGUG", -0.977),
    ("AGUAAGCAAUAUUACGAAGA", -2.82),
    ("UCUUAGCAAUAUUACGCCUG", -1.51),
    ("UCUUAGCAAUAUUACGAUAC", -3.06),
    ("GACGAGCAAUAUUACGGGCU", -2.21),
    ("UCCAAGCAAUAUUACGGAAU", -2.97),
    ("UAAGAGCAAUAUUACGUGGG", -2.68),
    ("CAUCAGCAAUAUUACGUUAC", -1.92),
    ("AACGAGCAAUAUUACGCUUA", -1.31),
    ("AUGGAGCAAUAUUACGAUGA", -1.36),
    ("UAACAGCAAUAUUACGAAAU", -2.52),
    ("GCUUAGCAAUAUUACGACCA", -1.29),
    ("AAAAAGCAAUAUUACGGGUA", -0.435),
    ("ACAAAGCAAUAUUACGGAUU", -0.946),
    ("CUCAAGCAAUAUUACGUUGA", -2.48),
    ("GGCGAGCAAUAUUACGAACC", -1.11),
    ("GCGCAGCAAUAUUACGCGCU", -1.41),
    ("AAUAAGCAAUAUUACGAAAG", -1.37),
    ("GGCAAGCAAUAUUACGCCUA", -1.19),
    ("AUAUAGCAAUAUUACGCUGA", -1.15),
    ("UACUAGCAAUAUUACGUCUC", -2.93),
    ("ACCUAGCAAUAUUACGUUGA", -1.54),
]

====

# method-notes: self-splicing fitness, log relative to wild type (ln ratio); higher = more splicing; Tetrahymena group I intron in knt gene, E. coli kanamycin selection, DiMSum; sequences stand for … in CUCUCU…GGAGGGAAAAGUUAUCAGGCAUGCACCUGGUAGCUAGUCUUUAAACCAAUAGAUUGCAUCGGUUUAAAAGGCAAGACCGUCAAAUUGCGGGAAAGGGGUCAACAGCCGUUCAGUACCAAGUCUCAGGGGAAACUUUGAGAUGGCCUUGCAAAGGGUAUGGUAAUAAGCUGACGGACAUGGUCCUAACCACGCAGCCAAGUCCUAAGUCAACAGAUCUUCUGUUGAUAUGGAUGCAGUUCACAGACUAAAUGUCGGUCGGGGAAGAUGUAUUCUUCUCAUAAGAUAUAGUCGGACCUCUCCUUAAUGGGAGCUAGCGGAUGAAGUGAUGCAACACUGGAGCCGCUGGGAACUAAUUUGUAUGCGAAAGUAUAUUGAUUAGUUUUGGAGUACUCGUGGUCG
# condition-summary: 37 °C

# biopolymer-sequence, self-splicing fitness (ln)
rows = [
    ("AAGCAGCAAUAUUACGAGUG", -2.69),
    ("GUCCAGCAAUAUUACGCAGU", -0.161),
    ("CACGAGCAAUAUUACGCCAC", -1.02),
    ("AUUAAGCAAUAUUACGGGGU", -2.83),
    ("CGGUAGCAAUAUUACGGUGC", -2.48),
    ("GGCAAGCAAUAUUACGUGAG", -0.0615),
    ("GUAGAGCAAUAUUACGAGUC", -1.47),
    ("UAAAAGCAAUAUUACGUGGG", -1.44),
    ("UGUAAGCAAUAUUACGGCCG", -0.516),
    ("UGAUAGCAAUAUUACGCUGA", -0.53),
    ("CAUAAGCAAUAUUACGUGUC", -2.55),
    ("AUACAGCAAUAUUACGAAAG", -0.9),
    ("ACCCAGCAAUAUUACGUAAU", 0.426),
    ("AUGGAGCAAUAUUACGGGAA", -2.33),
    ("AGAAAGCAAUAUUACGGUCC", 0.317),
    ("AUGAAGCAAUAUUACGAUCC", 0.455),
]

====

# method-notes: self-splicing fitness, log relative to wild type (ln ratio); higher = more splicing; Tetrahymena group I intron in knt gene, E. coli kanamycin selection, DiMSum; sequences stand for … in CUCUCU…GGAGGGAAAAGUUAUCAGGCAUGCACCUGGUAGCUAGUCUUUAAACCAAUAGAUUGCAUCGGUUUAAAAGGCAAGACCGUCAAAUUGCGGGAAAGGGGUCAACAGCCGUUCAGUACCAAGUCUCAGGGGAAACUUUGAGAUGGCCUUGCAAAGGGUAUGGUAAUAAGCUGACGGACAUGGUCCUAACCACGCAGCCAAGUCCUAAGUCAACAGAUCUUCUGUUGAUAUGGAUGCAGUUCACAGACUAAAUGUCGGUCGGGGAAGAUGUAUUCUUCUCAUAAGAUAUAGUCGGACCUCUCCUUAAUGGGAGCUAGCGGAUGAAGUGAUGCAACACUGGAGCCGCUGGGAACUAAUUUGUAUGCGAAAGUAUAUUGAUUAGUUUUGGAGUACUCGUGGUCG
# condition-summary: 37 °C
Use -2 as the dividing line for self-splicing fitness (ln), with the line itself on the Yes side and lower values as No.

# biopolymer-sequence, classification
data = [
    ("UUUUAGCAAUAUUACGAUUU", "Yes"),
    ("CAGUAGCAAUAUUACGUGAU", "Yes"),
    ("GACAAGCAAUAUUACGAAUG", "Yes"),
    ("GCUAAGCAAUAUUACGAAAG", "Yes"),
    ("UACAAGCAAUAUUACGGUGA", "Yes"),
    ("CACCAGCAAUAUUACGAAAA", "No"),
    ("GAUAAGCAAUAUUACGUACG", "Yes"),
    ("GGCGAGCAAUAUUACGCACG", "No"),
    ("CGCUAGCAAUAUUACGCUAG", "No"),
    ("GAGGAGCAAUAUUACGUCAU", "No"),
    ("CGGUAGCAAUAUUACGCUGG", "Yes"),
    ("CCUUAGCAAUAUUACGACUC", "No"),
    ("UAUGAGCAAUAUUACGUCGU", "No"),
    ("AACAAGCAAUAUUACGCAAC", "Yes"),
    ("AUAAAGCAAUAUUACGCUAG", "Yes"),
    ("CCAAAGCAAUAUUACGCGCC", "No"),
    ("UAAUAGCAAUAUUACGAGCU", "Yes"),
    ("UGGAAGCAAUAUUACGCAUC", "Yes"),
    ("AGUCAGCAAUAUUACGUGCC", "Yes"),
    ("CCUAAGCAAUAUUACGACCA", "Yes"),
    ("UGGUAGCAAUAUUACGAGAU", "Yes"),
    ("GCUGAGCAAUAUUACGACGA", "Yes"),
    ("UGCGAGCAAUAUUACGACAC", "Yes"),
    ("UACAAGCAAUAUUACGAGUU", "Yes"),
    ("GGCCAGCAAUAUUACGUGUC", "Yes"),
    ("CUCGAGCAAUAUUACGUUUU", "No"),
    ("AUGAAGCAAUAUUACGGCCU", "Yes"),
    ("CCUGAGCAAUAUUACGAAAG", "No"),
    ("CGACAGCAAUAUUACGUACG", "No"),
    ("CUAGAGCAAUAUUACGUGCA", "No"),
    ("AGUAAGCAAUAUUACGCCUU", "Yes"),
    ("UUCAAGCAAUAUUACGUGGC", "Yes"),
    ("CAGUAGCAAUAUUACGAAGA", "No"),
    ("GAGAAGCAAUAUUACGACCU", "Yes"),
    ("GUUAAGCAAUAUUACGCUUC", "Yes"),
    ("CUUCAGCAAUAUUACGUUAC", "No"),
    ("GCGGAGCAAUAUUACGAGUU", "Yes"),
    ("AAGGAGCAAUAUUACGCUAU", "Yes"),
    ("CGUCAGCAAUAUUACGCCCG", "Yes"),
    ("CGUGAGCAAUAUUACGUACA", "Yes"),
    ("GGUCAGCAAUAUUACGUGUU", "Yes"),
    ("UCAAAGCAAUAUUACGUAGG", "Yes"),
    ("CGACAGCAAUAUUACGUCUA", "Yes"),
    ("AAUUAGCAAUAUUACGAUAU", "Yes"),
    ("GUACAGCAAUAUUACGCAGC", "No"),
    ("UACUAGCAAUAUUACGUACA", "Yes"),
    ("ACUGAGCAAUAUUACGUACU", "Yes"),
    ("UAGGAGCAAUAUUACGCACU", "Yes"),
    ("UAUUAGCAAUAUUACGUUAU", "No"),
    ("GUGAAGCAAUAUUACGCUUA", "Yes"),
    ("ACUAAGCAAUAUUACGUAUU", "Yes"),
    ("AGAAAGCAAUAUUACGUACG", "Yes"),
    ("UUGAAGCAAUAUUACGCACC", "Yes"),
    ("CCGAAGCAAUAUUACGUGCU", "No"),
    ("CCCCAGCAAUAUUACGCGGG", "No"),
    ("CAACAGCAAUAUUACGGGCU", "No"),
    ("AGAUAGCAAUAUUACGCACU", "Yes"),
    ("AACAAGCAAUAUUACGCGUU", "No"),
    ("UGGGAGCAAUAUUACGUGCC", "No"),
    ("UAAAAGCAAUAUUACGAGUG", "Yes"),
    ("UAGGAGCAAUAUUACGCACA", "Yes"),
    ("CCACAGCAAUAUUACGGAAU", "No"),
    ("CAAUAGCAAUAUUACGUGUA", "No"),
    ("AUCGAGCAAUAUUACGUCUU", "Yes"),
    ("UAAGAGCAAUAUUACGACUG", "Yes"),
    ("GGCCAGCAAUAUUACGUCAG", "No"),
    ("CUAUAGCAAUAUUACGGGCA", "Yes"),
]
